# Tested on: K-562 leukemia
# Experiment Summary: NCI-60 one-dose screen, 48 h (100 = growth as untreated, 0 = no growth, -100 = all killed)
# Run Conditions: 10 µM unless noted
Compounds without any hit were thinned out: in the full panel of roughly 83,000, 20% have a hit.
Param threshold (30%) applies to growth; output 1.0 when value >= threshold, 0.0 when value < threshold.

Check this molecule for growth at or above 30%: Cc1cc(C)n2nc(SCC(=O)Nc3sc4c(c3C(N)=O)CCC4)nc2n1
1.0

Check this molecule for growth at or above 30%: CCN(CC)c1ccc(N=Nc2cc(Cl)ccc2Cl)c(NC(=O)CCC(=O)O)c1
1.0

Check this molecule for growth at or above 30%: CCCCN(CCCC)CCCOC(=O)c1ccc(N)cc1
1.0

Check this molecule for growth at or above 30%: CN(C)c1nc(-c2ccco2)n2nc(-c3ccco3)cc2n1
1.0

Check this molecule for growth at or above 30%: C/C(=N/N=C(N)N)c1ccc(Cl)cc1
1.0

Check this molecule for growth at or above 30%: CC[C@]1(O)CC2CN(CCc3c([nH]c4ccccc34)[C@@](C(=O)OC)(c3cc4c(cc3OC)N(C)[C@H]3[C@@](O)(C(=O)OC)[C@H](OC(C)=O)[C@]5(CC)C=CCN6CC[C@]43[C@@H]65)C2)C1 (stereo not given in full)
0.0

Check this molecule for growth at or above 30%: CC(=O)Oc1ccc(C23c4ccccc4C2(OC(C)=O)c2cc(OC(C)=O)ccc23)cc1 (stereo not given)
1.0

Check this molecule for growth at or above 30%: CC(=O)O[C@H]1C(=O)[C@@]2(C)C([C@H](OC(=O)c3ccccc3)[C@]3(O)C[C@H](OC(=O)[C@H](O)[C@@H](NC(=O)c4ccccc4)c4ccccc4)C(C)=C1C3(C)C)[C@]1(OC(C)=O)CO[C@@H]1C[C@@H]2O (stereo not given in full)
0.0

Check this molecule for growth at or above 30%: COc1ccc(/C=C(\C#N)c2ccccc2)cc1
0.0

Check this molecule for growth at or above 30%: CCC1=C(c2ccc(OC)cc2)C(C)Oc2cc(OC(C)=O)ccc21 (stereo not given)
1.0

Check this molecule for growth at or above 30%: Cc1ccccc1-c1cc(Cc2ccccc2O)c(=O)[nH]n1
1.0

Check this molecule for growth at or above 30%: Nc1nonc1-c1nc2ccccc2n1CC(=O)Nc1ccc2c(c1)COC2=O
1.0

Check this molecule for growth at or above 30%: CCCCCCC(C)(O)c1ccccc1 (stereo not given)
1.0

Check this molecule for growth at or above 30%: O=C(Nc1ccncc1)C(=O)c1cn(S(=O)(=O)c2cccc(F)c2)c2ccccc12
0.0

Check this molecule for growth at or above 30%: COc1ccc(-c2oc3cc(O)c(OC)c(O)c3c(=O)c2OC)cc1O
0.0

Check this molecule for growth at or above 30%: COc1c(C)c2c(c(O)c1C/C=C(\C)CCC(=O)OCCN1CCOCC1)C(=O)OC2
0.0

Check this molecule for growth at or above 30%: O=[P@@]1(c2ccccc2)O[C@H](COCc2ccccc2)[C@@H](OCc2ccccc2)[C@H](OCc2ccccc2)[C@H]1NCc1ccccc1
0.0

Check this molecule for growth at or above 30%: Cc1cccc(Cl)c1NC(=O)c1ccc2nc(NC(=O)NC3CC(C)(C)NC(C)(C)C3)sc2c1
0.0

Check this molecule for growth at or above 30%: O=[N+]([O-])c1ccc(N/N=C/c2c(O)ccc3ccccc23)nc1
1.0

Check this molecule for growth at or above 30%: CCOC(=O)C(C(C)=O)c1nc2sc3cc(Cl)ccc3n2c(=N)c1C#N (stereo not given)
1.0

Check this molecule for growth at or above 30%: COc1ccc(-c2nn(-c3cccc(Cl)c3)cc2C2CC(c3ccccc3)=NN2C(C)=O)cc1 (stereo not given)
1.0

Check this molecule for growth at or above 30%: C[C@]12C[C@H](O)[C@H]3[C@@H](CCC4=CC(=O)CC[C@@]43C)[C@@H]1CC[C@@H]2C(=O)CO
1.0

Check this molecule for growth at or above 30%: CSc1ccc2c(c1)N(CCC1CCCCN1C)c1ccccc1S2 (stereo not given)
0.0

Check this molecule for growth at or above 30%: O=C1/C(=C/c2ccc3cccc(Cl)c3n2)SC(=S)N1CCc1ccc(O)cc1
1.0

Check this molecule for growth at or above 30%: CCN(CC)CCOc1ccccc1-n1c(C)ccc1-c1ccccc1
0.0

Check this molecule for growth at or above 30%: c1ccc2cc(C[n+]3ccn(CCCCCCCn4cc[n+](Cc5ccc6ccccc6c5)c4)c3)ccc2c1
0.0

Check this molecule for growth at or above 30%: CCN(CC)CCCNCCCNc1cc(OC)cc2cccnc12
1.0

Check this molecule for growth at or above 30%: CC(c1ccccn1)C(C)(O)C(C)c1ccccn1 (stereo not given)
1.0

Check this molecule for growth at or above 30%: COc1ccc(-c2cc(Cc3cccs3)c(=O)n(Cn3cncn3)n2)cc1
1.0

Check this molecule for growth at or above 30%: COc1ccc2c(c1)C(=O)/C(=C/c1cccc(OCC(=O)c3ccccc3)c1)CC2
1.0

Check this molecule for growth at or above 30%: CC1=C(C(=O)Nc2ccccc2)C(c2ccc3c(c2)OCCO3)NC(=O)N1 (stereo not given)
1.0

Check this molecule for growth at or above 30%: CCOc1cccc(C2CC(=O)Nc3cc4c(cc32)OCO4)c1 (stereo not given)
1.0

Check this molecule for growth at or above 30%: Cc1cc(CC(=O)O)n(C)c1C(=O)c1ccc(Cl)cc1
1.0

Check this molecule for growth at or above 30%: CCCCCCCCCCSc1ncnc2nc[nH]c12
1.0

Check this molecule for growth at or above 30%: Clc1ccc(-n2cnc3c(Cl)ncnc32)cc1Cl
1.0

Check this molecule for growth at or above 30%: O=C1/C(=N/O)CCc2ccccc21
0.0

Check this molecule for growth at or above 30%: CSc1nnc(C2=CC(=O)c3ccccc3C2=O)n1-c1ccccc1
0.0

Check this molecule for growth at or above 30%: COc1ccc(C2CC(c3ccc(OC)c(OC)c3)=NN2C(=O)c2cc(OC)c(OC)c(OC)c2)c(OC)c1 (stereo not given)
1.0

Check this molecule for growth at or above 30%: O=C1/C(=C/c2ccc([N+](=O)[O-])s2)Oc2ccc(Br)cc21
0.0

Check this molecule for growth at or above 30%: N#Cc1cccc(/C=C(/C(=O)c2ccccc2)c2ccccc2)c1
0.0
